Data origin, for the record: the supplement of paper PMC7411054

- Tested on: HepG2-CANX-COX4
- testSummary: phenotypically active (imaging signature differs from DMSO and reproducible) at any of 0.3-9 uM (binary (1 = active, 0 = inactive)); higher = active
- conditionDetails: treatment time: 24 h
Just give me one of these, please: active, inactive

Use the examples below as a reference point.
# input Query: recorded result category for C[C@]12CC[C@H](O)C[C@H]1CC[C@@H]1[C@@H]2C[C@@H](O)[C@]2(C)[C@@H](C3=CC(=O)OC3)CC[C@]12O [Digoxigenin] in this test
# output active

# input Query: recorded result category for COc1cc([C@@H]2c3cc4c(cc3[C@H](O)[C@H]3COC(=O)[C@H]23)OCO4)cc(OC)c1OC [Podophyllotoxin] in this test
# output active

# input Query: recorded result category for COc1ccc2c(c1)[C@]13CCCC[C@@H]1[C@H](C2)N(C)CC3 [dextromethorphan] in this test
# output inactive

Next compound, please.
# input Query: recorded result category for `CCn1cnc2c(Nc3cccc(Cl)c3)nc(N[C@H]3CCCC[C@H]3N)nc21` in this test
# output active

====

- Tested on: A549-TP53BP1-CLTA
- testSummary: phenotypically active (imaging signature differs from DMSO and reproducible) at any of 0.3-9 uM (binary (1 = active, 0 = inactive)); higher = active
- conditionDetails: treatment time: 24 h
Where a name gives a salt, the structure may show the parent alone.
Just give me one of these, please: y for active, n for inactive

Use the examples below as a reference point.
# input Query: recorded result category for CC(C)[C@@]1(NC(=O)[C@@H]2C[C@@H]3c4cccc5[nH]cc(c45)C[C@H]3N(C)C2)O[C@@]2(O)[C@@H]3CCCN3C(=O)[C@H](Cc3ccccc3)N2C1=O [Dihydroergocristine mesylate] in this test
# output y

# input Query: recorded result category for c1cncc(C2CC3CCN2CC3)c1 (stereo not drawn) [RJR 2429 dihydrochloride] in this test
# output n

# input Query: recorded result category for `COc1ccc(C(=O)Cc2c(CCN(C)C)cc3c(c2OC)OCO3)c(C(=O)O)c1OC` in this test
# output n

# input Query: recorded result category for `COc1cc(C(=O)O[C@H]2C[C@H]3CC[C@@H](C2)N3C)ccc1O` in this test
# output n

# input Query: recorded result category for `COc1ccc2c(c1)[C@]13CCCC[C@@H]1[C@H](C2)N(C)CC3` in this test
# output n

---
# input Query: recorded result category for COc1ccc2c(c1O)-c1c(OC)c(OC)cc3c1[C@H](C2)N(C)CC3 [Isocorydine (+)] in this test
# output n

# input Query: recorded result category for `CCC(=O)O[C@](Cc1ccccc1)(c1ccccc1)[C@H](C)CN(C)C` in this test
# output n

# input Query: recorded result category for `O=C1CN=C(c2ccccc2)c2cc(Cl)ccc2N1CC(F)(F)F` in this test
# output n

====

- System: WPMY1-TP53BP1-CLTA
- testSummary: phenotypically active (imaging signature differs from DMSO and reproducible) at any of 0.3-9 uM (binary (1 = active, 0 = inactive)); higher = active
- conditionDetails: treatment time: 24 h
Structures can show the parent of a compound that is named as a salt.
Reported phenotypically active values are given for each entry in this list.
Please give the numeric answer without any surrounding text.

Consider the following illustrative entries.
# input Please give the documented phenotypically active of `CC[C@@H]1C=CC=CC[C@H](C)[C@@H](O)[C@](C)(O)C(=O)[C@H](C)[C@@H](O)[C@H](C)C(=O)[C@H](C)[C@@H](O)[C@H](C)C=CC(=O)O[C@H]2[C@@H](C)[C@@H](CC1)O[C@@]1(CC[C@@H](C)[C@@H](C[C@H](C)O)O1)[C@@H]2C`
# output 0

# input Please give the documented phenotypically active of `COc1ccc2c(c1)/C(=C/c1c[nH]cn1)C(=O)N2`
# output 1

# input Please give the documented phenotypically active of `C[C@@H]1CN([C@H]2CC[C@](C#N)(c3ccc(F)cc3)CC2)CC[C@]1(C(=O)O)c1ccccc1`
# output 0

# input Please give the documented phenotypically active of `C[C@H]1CCCC=C[C@@H]2C[C@H](O)C[C@H]2[C@H](O)C=CC(=O)O1`
# output 1

# input Please give the documented phenotypically active of `COc1cc(C(=O)O[C@H]2C[C@H]3CC[C@@H](C2)N3C)ccc1O`
# output 0

# input Please give the documented phenotypically active of `CCOc1cc(C=O)ccc1O`
# output 0

# input Please give the documented phenotypically active of `CC(C)(N)Cc1ccccc1`
# output 0

# input Please give the documented phenotypically active of `CC(C)(C)c1cc(C=C(C#N)C#N)cc(C(C)(C)C)c1O`
# output 1

# input Please give the documented phenotypically active of `CCn1cnc2c(Nc3cccc(Cl)c3)nc(N[C@H]3CCCC[C@H]3N)nc21`
# output 1

# input Please give the documented phenotypically active of `N[C@H]1C[C@@H]1c1ccccc1`
# output 0

---
# input Please give the documented phenotypically active of `N#CC(C#N)=NNc1ccc(OC(F)(F)F)cc1`
# output 1

# input Please give the documented phenotypically active of CN1C[C@H](C(=O)N[C@]2(C)O[C@@]3(O)[C@@H]4CCCN4C(=O)[C@H](Cc4ccccc4)N3C2=O)C[C@@H]2c3cccc4[nH]cc(c34)C[C@H]21.CN1C[C@H](C(=O)N[C@]2(C)O[C@@]3(O)[C@@H]4CCCN4C(=O)[C@H](Cc4ccccc4)N3C2=O)C[C@@H]2c3cccc4[nH]cc(c34)C[C@H]21 [dihydroergotamine]
# output 1

# input Please give the documented phenotypically active of `CC1=C2[C@H]3OC(=O)[C@@H](C)[C@@H]3CC[C@@]2(C)C=CC1=O`
# output 0

# input Please give the documented phenotypically active of `CO[C@H](C)[C@](O)(C(=O)OCC1=CCN2CC[C@H](O)[C@@H]12)C(C)C`
# output 0

# input Please give the documented phenotypically active of COc1ccc(C(=O)OC2C[C@H]3CC[C@H](C2)N3C)cc1OC (stereo not given in full) [Convolamine hydrochloride]
# output 0

====

Reported lowest phenotypically active concentration values are given for each entry in this list.
- System: WPMY1-TP53BP1-CLTA
- testSummary: lowest phenotypically active concentration; higher = less potent
- conditionDetails: treatment time: 24 h
Structures can show the parent of a compound that is named as a salt.
Respond numerically; units are µM and should not be typed.

Consider the following illustrative entries.
# input // output lowest phenotypically active concentration; input `C[C@@H](CO)NC(=O)[C@@H]1C=C2c3cccc4[nH]cc(c34)C[C@H]2N(C)C1` ; system WPMY1-TP53BP1-CLTA
# output 9

# input // output lowest phenotypically active concentration; input `O=C1NC(=S)N(c2cccc(Br)c2)C(=O)/C1=C/c1ccco1` ; system WPMY1-TP53BP1-CLTA
# output 9

# input // output lowest phenotypically active concentration; input Cc1c(C(=O)c2cccc3ccccc23)c2cccc3c2n1[C@H](CN1CCOCC1)CO3 [WIN 55,212-2 mesylate] ; system WPMY1-TP53BP1-CLTA
# output 9

# input // output lowest phenotypically active concentration; input CC(C)[C@@]1(NC(=O)[C@@H]2C[C@@H]3c4cccc5[nH]cc(c45)C[C@H]3N(C)C2)O[C@@]2(O)[C@@H]3CCCN3C(=O)[C@H](Cc3ccccc3)N2C1=O [Dihydroergocristine mesylate] ; system WPMY1-TP53BP1-CLTA
# output 9

# input // output lowest phenotypically active concentration; input `O=C1NC(=O)c2c1c1c3ccccc3n3c1c1c2c2ccccc2n1C1CCC3O1` ; system WPMY1-TP53BP1-CLTA
# output 9

Turning now to a further record.
# input // output lowest phenotypically active concentration; input `C=C1[C@@H](C)[C@H]2[C@H](Cc3ccccc3)NC(=O)[C@]23OC(=O)C=C[C@H](O)CCC[C@@H](C)CC=C[C@H]3[C@@H]1O` ; system WPMY1-TP53BP1-CLTA
# output 3

====

- Test system: WPMY1-TUBA1B-RELA
- testSummary: phenotypically active (imaging signature differs from DMSO and reproducible) at any of 0.3-9 uM (binary (1 = active, 0 = inactive)); higher = active
- conditionDetails: treatment time: 24 h
Counter-ions that a name gives are not always drawn.
Just give me one of these, please: active, inactive

# input Query: recorded result category for `NCC1(CC(=O)O)CCCCC1` in this test
# output inactive

# input Query: recorded result category for `OCC[N+]12CN3CN(CN(C3)C1)C2` in this test
# output inactive

# input Query: recorded result category for `C[C@@H](N)[C@@H](O)c1ccccc1` in this test
# output inactive

# input Query: recorded result category for CCCN1CCC[C@@H]2Cc3n[nH]cc3C[C@H]21 [(-)-Quinpirole hydrochloride] in this test
# output inactive

# input Query: recorded result category for CNCC(O)c1ccc(O)c(OC)c1 (stereo not drawn) [Metanephrine hydrochloride DL] in this test
# output inactive

# input Query: recorded result category for CN1[C@@H]2C[C@@H](OC(=O)[C@H](CO)c3ccccc3)C[C@H]1[C@@H]1O[C@@H]12 [Scopolamine hydrobromide] in this test
# output inactive

# input Query: recorded result category for CC[C@@H](C(=O)[C@@H](C)[C@@H](O)[C@H](C)[C@@H]1O[C@@H]([C@@H](CC)C(=O)O)CC[C@@H]1C)[C@H]1O[C@]2(C=C[C@@H](O)[C@]3(CC[C@@](C)([C@H]4CC[C@](O)(CC)[C@H](C)O4)O3)O2)[C@H](C)C[C@@H]1C [Salinomycin Sodium] in this test
# output active

# input Query: recorded result category for O=C(NCCN1CCC2(CC1)C(=O)NCN2c1cccc(F)c1)c1ccc(F)c(F)c1 [ML 298 hydrochloride] in this test
# output active

# input Query: recorded result category for CN1C[C@H](C(=O)N[C@]2(C)O[C@@]3(O)[C@@H]4CCCN4C(=O)[C@H](Cc4ccccc4)N3C2=O)C[C@@H]2c3cccc4[nH]cc(c34)C[C@H]21.CN1C[C@H](C(=O)N[C@]2(C)O[C@@]3(O)[C@@H]4CCCN4C(=O)[C@H](Cc4ccccc4)N3C2=O)C[C@@H]2c3cccc4[nH]cc(c34)C[C@H]21 [dihydroergotamine] in this test
# output inactive

# input Query: recorded result category for `O=C1NC(=S)N(c2cccc(Br)c2)C(=O)/C1=C/c1ccco1` in this test
# output active

---
# input Query: recorded result category for `CC(C)(C)c1cc(C=C(C#N)C#N)cc(Br)c1O` in this test
# output inactive

# input Query: recorded result category for CN1CCC2=C[C@H](O)[C@H]3OC(=O)c4cc5c(cc4[C@H]3[C@@H]21)OCO5 [Hippeastrine hydrobromide] in this test
# output inactive

# input Query: recorded result category for `Cc1nnc2n1-c1ccc(Cl)cc1C(c1ccccc1)=NC2` in this test
# output inactive

# input Query: recorded result category for `CN1C[C@H](C(=O)N[C@]2(C)O[C@@]3(O)[C@@H]4CCCN4C(=O)[C@H](Cc4ccccc4)N3C2=O)C=C2c3cccc4[nH]cc(c34)C[C@H]21` in this test
# output active

# input Query: recorded result category for `N#Cc1c(Oc2cccc(OS(=O)(=O)CCCC(F)(F)F)c2)cccc1C(F)(F)F` in this test
# output inactive

# input Query: recorded result category for COc1ccc2c(c[n+](C)c3c4cc5c(cc4ccc23)OCO5)c1OC [Chelerythrine chloride] in this test
# output inactive
